Tested on: 439559-082-T-J2-PDC spheroid viability;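 further: spheroids exposed to compounds for seven days before readout; 100% = DMSO vehicle control viability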
MEASUREMENT NOTES: Anticancer human tumor 439559-082-T-J2-PDC patient-derived colon adenocarcinoma cell line growth inhibition [POLQ]
MEASUREMENT SETUP: second compound 0.1 µM; first compound 3.16 µM; stronger effect = lower value; spheroids with HUVEC and MSC
Parameter viability, T/C: see the listing below.
Your answer should be a plain number; it is taken to be in %.

Reference set (4 entries):
[[record]]
compound = "O=C(Nc1ccc(O)c(NS(=O)(=O)c2ccc(F)cc2)c1)c1ccc(-c2ccccc2)cc1 + COC1C(OC(N)=O)C(O)C(Oc2ccc3c(O)c(NC(=O)c4ccc(O)c(CC=C(C)C)c4)c(=O)oc3c2C)OC1(C)C"
recorded_endpoint = "viability, T/C"
reported_result = 103

[[record]]
compound = "CC1COCCN1c1cc(C2(S(C)(=N)=O)CC2)nc(-c2ccnc3[nH]ccc23)n1 (stereo not given) + Cc1cccc(N(C)C(=O)C2C(O)CCN2c2nc(C)cc(C(F)(F)F)c2C#N)c1"
recorded_endpoint = "viability, T/C"
reported_result = 84.7

[[record]]
compound = "O=C(c1cc(Cc2n[nH]c(=O)c3ccccc23)ccc1F)N1CCN(C(=O)C2CC2)CC1 + Nc1ccc(C#CCN(C(=O)Cc2ncc(C(F)(F)F)cc2C(F)(F)F)c2ccc(F)cc2)nn1"
recorded_endpoint = "viability, T/C"
reported_result = 92.8

[[record]]
compound = "CCc1cc2c(N3CCc4c(cc(Cn5ccnc5)cc4-c4cn(C)nc4C(F)(F)F)C3=O)cc(C)nc2c(OC)n1 + Nc1ccc(C#CCN(C(=O)Cc2ncc(C(F)(F)F)cc2C(F)(F)F)c2ccc(F)cc2)nn1"
recorded_endpoint = "viability, T/C"
reported_result = 91.9


Now consider the entry below.
Output measured viability, T/C for this item: C#Cc1c(F)ccc2cc(O)cc(-c3ncc4c(N5CC6CCC(C5)N6)nc(OCC56CCCN5CC(F)C6)nc4c3F)c12 (stereo not given) + Nc1ccc(C#CCN(C(=O)Cc2ncc(C(F)(F)F)cc2C(F)(F)F)c2ccc(F)cc2)nn1
74.5
